// reported viscosity for each item listed
# setup-conditions: 298.15 K; 100 kPa; Liquid; Concentric cylinders viscometry
measure: viscosity (mPa·s)

> print(dat)
                                   compound  result.value
1  CCCC[P+](CCCC)(CCCC)CCCC.O=S(=O)([O-])CC(O)CNC1CCCCC1         10098
2  CCCC[P+](CCCC)(CCCC)CCCC.O=S(=O)([O-])CCN(CCO)CCO         14082
3  CCCC[P+](CCCC)(CCCC)CCCC.O=S(=O)([O-])CC(O)CN1CCOCC1 [tetrabutylphosphonium 2-hydroxy-3-morpholinopropanesulfonate]        7312.9
4   C[N+](C)(C)CCO.O=S(=O)([O-])CCN(CCO)CCO         20518

###

// reported mass density for each item listed
# setup-conditions: 318.15 K; 100 kPa; Liquid; Vibrating tube method
measure: mass density (kg/m3)

> print(dat)
                                   compound  result.value
1  CCCC[N+](CCCC)(CCCC)CCCC.O=S(=O)([O-])CC(O)CNC1CCCCC1        1014.4
2  CCCC[N+](CCCC)(CCCC)CCCC.O=S(=O)([O-])CCN(CCO)CCO        1049.6
3  CCCC[N+](CCCC)(CCCC)CCCC.O=S(=O)([O-])CC(O)CN1CCOCC1 [tetrabutylammonium 2-hydroxy-3-morpholinopropanesulfonate]        1045.3
4   C[N+](C)(C)CCO.O=S(=O)([O-])CCN(CCO)CCO        1233.3
5  C[N+](C)(C)CCO.O=S(=O)([O-])CC(O)CN1CCOCC1 (stereo not drawn)        1228.7
6  CCCC[P+](CCCC)(CCCC)CCCC.O=S(=O)([O-])CCN(CCO)CCO        1049.6
7  CCCC[P+](CCCC)(CCCC)CCCC.O=S(=O)([O-])CC(O)CN1CCOCC1 [tetrabutylphosphonium 2-hydroxy-3-morpholinopropanesulfonate]        1044.4
8  CCCC[P+](CCCC)(CCCC)CCCC.O=S(=O)([O-])CC(O)CNC1CCCCC1          1019

###

# setup-conditions: 298.15 K; 100 kPa; Liquid; Vibrating tube method
measure: mass density (kg/m3)

> print(dat)
                                   compound       measure  unit.string  result.value
1   C[N+](C)(C)CCO.O=S(=O)([O-])CCN(CCO)CCO  mass density        kg/m3        1244.8
2  CCCC[P+](CCCC)(CCCC)CCCC.O=S(=O)([O-])CC(O)CN1CCOCC1 [tetrabutylphosphonium 2-hydroxy-3-morpholinopropanesulfonate]  mass density        kg/m3        1056.8
3  CCCC[P+](CCCC)(CCCC)CCCC.O=S(=O)([O-])CC(O)CNC1CCCCC1  mass density        kg/m3        1031.1
4  CCCC[P+](CCCC)(CCCC)CCCC.O=S(=O)([O-])CCN(CCO)CCO  mass density        kg/m3          1061

###

# measurement-protocol: refractive index (Na D-line) (dimensionless)
# setup-conditions: 323.15 K; 100 kPa; Liquid; Standard Abbe refractometry
measure: refractive index

> print(dat)
                                   compound  result.value
1  CCCC[N+](CCCC)(CCCC)CCCC.O=S(=O)([O-])CC(O)CNC1CCCCC1       1.47937
2  CCCC[N+](CCCC)(CCCC)CCCC.O=S(=O)([O-])CC(O)CN1CCOCC1 [tetrabutylammonium 2-hydroxy-3-morpholinopropanesulfonate]       1.47873
3   C[N+](C)(C)CCO.O=S(=O)([O-])CCN(CCO)CCO       1.49476
4  CCCC[P+](CCCC)(CCCC)CCCC.O=S(=O)([O-])CCN(CCO)CCO       1.48921
5  C[N+](C)(C)CCO.O=S(=O)([O-])CC(O)CNC(CO)(CO)CO (stereo not given)       1.50991

###

// reported refractive index for each item listed
# measurement-protocol: refractive index (Na D-line) (dimensionless)
# setup-conditions: 308.15 K; 100 kPa; Liquid; Standard Abbe refractometry
measure: refractive index

> print(dat)
                                   compound  result.value
1  C[N+](C)(C)CCO.O=S(=O)([O-])CC(O)CN1CCOCC1 (centres undefined)       1.49778
2  CCCC[N+](CCCC)(CCCC)CCCC.O=S(=O)([O-])CC(O)CN1CCOCC1 [tetrabutylammonium 2-hydroxy-3-morpholinopropanesulfonate]       1.48328
3  CCCC[N+](CCCC)(CCCC)CCCC.O=S(=O)([O-])CCN(CCO)CCO       1.48577
4  CCCC[P+](CCCC)(CCCC)CCCC.O=S(=O)([O-])CCN(CCO)CCO       1.49333

###

# setup-conditions: 293.15 K; 100 kPa; Liquid; Concentric cylinders viscometry
measure: viscosity (mPa·s)

> print(dat)
                                   compound  unit.string  result.value
1  CCCC[P+](CCCC)(CCCC)CCCC.O=S(=O)([O-])CC(O)CNC1CCCCC1        mPa·s         17587
2  CCCC[P+](CCCC)(CCCC)CCCC.O=S(=O)([O-])CC(O)CN1CCOCC1 [tetrabutylphosphonium 2-hydroxy-3-morpholinopropanesulfonate]        mPa·s         12430
3   C[N+](C)(C)CCO.O=S(=O)([O-])CCN(CCO)CCO        mPa·s         33236
4  CCCC[P+](CCCC)(CCCC)CCCC.O=S(=O)([O-])CCN(CCO)CCO        mPa·s         24078

###

# measurement-protocol: refractive index (Na D-line) (dimensionless)
# setup-conditions: 303.15 K; 100 kPa; Liquid; Standard Abbe refractometry
measure: refractive index

> print(dat)
                                   molecule  result.value
1  CCCC[N+](CCCC)(CCCC)CCCC.O=S(=O)([O-])CCN(CCO)CCO       1.48706
2  CCCC[P+](CCCC)(CCCC)CCCC.O=S(=O)([O-])CCN(CCO)CCO       1.49365
3   C[N+](C)(C)CCO.O=S(=O)([O-])CCN(CCO)CCO       1.49937
4  CCCC[P+](CCCC)(CCCC)CCCC.O=S(=O)([O-])CC(O)CNC1CCCCC1       1.49162
5  CCCC[P+](CCCC)(CCCC)CCCC.O=S(=O)([O-])CC(O)CN1CCOCC1 [tetrabutylphosphonium 2-hydroxy-3-morpholinopropanesulfonate]       1.49152

###

// reported refractive index for each item listed
# measurement-protocol: refractive index (Na D-line) (dimensionless)
# setup-conditions: 313.15 K; 100 kPa; Liquid; Standard Abbe refractometry
Numbers after ± are expanded uncertainties.
measure: refractive index

> print(dat)
                                   compound      result.value
1   C[N+](C)(C)CCO.O=S(=O)([O-])CCN(CCO)CCO  1.49716 ± 0.0012
2  C[N+](C)(C)CCO.O=S(=O)([O-])CC(O)CN1CCOCC1 (stereo not drawn)  1.49658 ± 0.0012
3  CCCC[N+](CCCC)(CCCC)CCCC.O=S(=O)([O-])CC(O)CNC1CCCCC1  1.48189 ± 0.0012
4  CCCC[P+](CCCC)(CCCC)CCCC.O=S(=O)([O-])CCN(CCO)CCO  1.49198 ± 0.0011
5  CCCC[N+](CCCC)(CCCC)CCCC.O=S(=O)([O-])CCN(CCO)CCO  1.48445 ± 0.0011
6  CCCC[P+](CCCC)(CCCC)CCCC.O=S(=O)([O-])CC(O)CN1CCOCC1 [tetrabutylphosphonium 2-hydroxy-3-morpholinopropanesulfonate]  1.48836 ± 0.0011
7  CCCC[P+](CCCC)(CCCC)CCCC.O=S(=O)([O-])CC(O)CNC1CCCCC1  1.48782 ± 0.0012
8  CCCC[N+](CCCC)(CCCC)CCCC.O=S(=O)([O-])CC(O)CN1CCOCC1 [tetrabutylammonium 2-hydroxy-3-morpholinopropanesulfonate]  1.48188 ± 0.0011

###

// reported mass density for each item listed
# setup-conditions: 333.15 K; 100 kPa; Liquid; Vibrating tube method
measure: mass density (kg/m3)

> print(dat)
                                   compound       measure  result.value
1  CCCC[N+](CCCC)(CCCC)CCCC.O=S(=O)([O-])CCN(CCO)CCO  mass density        1041.2
2  C[N+](C)(C)CCO.O=S(=O)([O-])CC(O)CN1CCOCC1 (centres undefined)  mass density        1219.5
3  CCCC[N+](CCCC)(CCCC)CCCC.O=S(=O)([O-])CC(O)CNC1CCCCC1  mass density        1005.7
4  CCCC[P+](CCCC)(CCCC)CCCC.O=S(=O)([O-])CC(O)CN1CCOCC1 [tetrabutylphosphonium 2-hydroxy-3-morpholinopropanesulfonate]  mass density        1035.1
5  CCCC[N+](CCCC)(CCCC)CCCC.O=S(=O)([O-])CC(O)CN1CCOCC1 [tetrabutylammonium 2-hydroxy-3-morpholinopropanesulfonate]  mass density        1035.8
6  C[N+](C)(C)CCO.O=S(=O)([O-])CC(O)CNC(CO)(CO)CO (centres undefined)  mass density        1313.3
7   C[N+](C)(C)CCO.O=S(=O)([O-])CCN(CCO)CCO  mass density        1224.9
8  CCCC[P+](CCCC)(CCCC)CCCC.O=S(=O)([O-])CCN(CCO)CCO  mass density        1041.2
9  CCCC[P+](CCCC)(CCCC)CCCC.O=S(=O)([O-])CC(O)CNC1CCCCC1  mass density        1009.8
